Attribution: the supplement of paper PMC4466140

- testedTarget: SpPex13
- assayProcedure: SPOT peptide array binding signal intensity (averaged, normalized) (arbitrary units (background-subtracted, floor 0; scale differs between SH3 domains)); higher = stronger binding of the SH3 domain to the peptide
Kindly state SPOT peptide array binding signal intensity for each of the entries shown.
One number for each entry.

VPPVPLPFGIPPFPM = 9.5

Dear colleague, could you send me SPOT peptide array binding signal intensity for each of the items below? Thanks.
1. VATSTSPKLPPRGKQ
2. QPPLPSSAPPIPTSH
3. TPTSGPPLLPPRNTM

2
1
84.5

Please give SPOT peptide array binding signal intensity for each item listed below.
1. DLFKPLPEPPTELGR
2. RSLRKRPTSPSISGS
3. FFRRSELYLPNSSKA
4. NLPKRKPPKLQGPFS
5. IPSRPAPKPPSSASA
6. VQQDSLPKLPFRSWG

1: 3; 2: 7; 3: 10; 4: 5; 5: 93.5; 6: 5

List SPOT peptide array binding signal intensity for every entry below, keeping the order given.
1. RMVRRRPLRVQFSAR
2. FSRRQSMDIPSKNRN
3. NSMRPPLLIPAATTK
4. IFLRISINFPLNYPN

320
157
37
1640
